Examples of compounds with documented EC50 follow.
Target: S. pyogenes SKKanGAS, kanamycin survival, BacTiterGlo, 6 h
Test: S. pyogenes SKKanGAS kanamycin growth inhibitors – SKKanGAS strain, luminescence, dose confirmation, streptokinase promoter inhibitor project, dose response (AID 1902);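 also: lower survival reflects blocked streptokinase promoter driving kanamycin resistance gene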

Answered examples (3):
COc1ccc(C(=O)/C=C/c2ccc(O)cc2)c(O)c1CC=C(C)C : 2.14 µM
CC1(C)CC[C@]2(C(=O)O)CC[C@]3(C)C(=CCC4[C@@]5(C)CC[C@H](O)C(C)(C)C5CC[C@]43C)C2C1 (stereo partly specified) : 2.69 µM
CSc1nc2cc(Oc3cccc(Cl)c3Cl)c(Cl)cc2[nH]1 : 2.93 µM

Turning to the following compound.
The reported value for Fc1ccc(Br)cc1C1C=C(c2ccc(Br)s2)Nc2ncnn21 (stereo unspecified) in terms of EC50 is 6.39 µM
